Test system: S. Typhimurium PhoP-regulated promoter GFP reporter, 4 h
Experiment: inhibitors of PhoP regulon expression, primary screen, Salmonella Typhimurium, GFP reporter (AID 1863)
measurementLabel: pIC50
Remember, pIC50 is on a log scale: it is -log10 of the molar concentration.

Please review the entries below; each comes with its answer.
{"columns": ["compound", "pIC50"],
 "data": [
  ["CCn1cc(C(=O)O)c(=O)c2cc(F)c(N3CCN(C(=S)NC(=O)c4ccccc4C)CC3)cc21", 4.87],
  ["O=C(N/N=C/c1sc2ccccc2c1O)c1cccc2ccccc12", 4.37],
  ["O=C(N/N=C/c1cc([N+](=O)[O-])ccc1O)C1CC1", 4.18],
  ["CS(=O)(=O)c1ccc([C@@H](O)[C@@H](CF)NC(=O)C(Cl)Cl)cc1", 5.01]
]}

Entry Oc1ccc(CNc2ccccc2F)c2cccnc12 — recorded pIC50 = 4.02

GET /value?item= Clc1ccc(CN2CCC(c3nc4ccc(Cl)cc4[nH]3)CC2)cc1 &field=pIC50 returns 4.10

For record CN(C)CCCN(C(=O)CCc1ccccc1)c1nc2ccc(Cl)cc2s1 the listed pIC50 is 4.32

Entry C1=C(CCNCc2ccccc2)CCCC1 — recorded pIC50 = 5.04

Given item NC1=NC[C@@H](Cc2ccc(O)cc2)N1CCCCC1CCCCC1 , the value recorded as its pIC50 is 4.51

Quick note, pIC50 for Nc1cc(Cl)c2nonc2c1[N+](=O)[O-] landed at 4.24

// recorded pIC50 for O=C(O)CCN1C(=O)CC(N2C(=O)/C(=C/c3ccc(Cl)cc3)SC2=S)C1=O (stereo unspecified) : 4.39

The reported pIC50 of the compound CCN1/C(=C/C=C/c2sc3ccccc3[n+]2CC)Sc2ccccc21 was 4.47

Query c1ccc(-c2cccc(-c3ccccn3)n2)nc1 yields pIC50 of 4.37

The compound identified as NC1=NC[C@H](Cc2ccccc2)N1CCCCC1CCCCC1 registered its pIC50 at 4.32

In plain terms, O=C1C(SCCO)=C(SCCO)C(=O)c2ccccc21 has a documented pIC50 of 4.15

* * *

Test system: S. Typhimurium PhoP-regulated promoter GFP reporter, 4 h
Experiment: inhibitors of PhoP regulon expression, primary screen, Salmonella Typhimurium, GFP reporter (AID 1863)
measurementLabel: pIC50
Give only the number. pIC50 is defined as minus log10 of concentration in molar units.

{"columns": ["molecule", "testedTarget", "pIC50"],
 "data": [
  ["O=[N+]([O-])c1ccc(Sc2nc3ccccc3o2)c([N+](=O)[O-])c1", "S. Typhimurium PhoP-regulated promoter GFP reporter, 4 h", 3.93]
]}

So, CCCNC1=C(C)C(=O)C2=C(C1=O)C(COC(N)=O)[C@]1(OC)C3NC3CN21 (stereo not given in full) ? Its pIC50 was 4.62

Short answer for CC(=O)NC(c1cccc([N+](=O)[O-])c1)c1ccc2cccnc2c1O (stereo not given) : pIC50 was 3.98

Form field pIC50, entry C/C(=N\Nc1nc2ccccc2[nH]1)c1ccccn1 : 4.46

// field: pIC50; key: CN(C)CCCNc1cc(C(C)(C)C)nc2c(-c3ccccc3)cnn12 ; value = 4.17

* * *

System: S. Typhimurium PhoP-regulated promoter GFP reporter, 4 h
Test: inhibitors of PhoP regulon expression, primary screen, Salmonella Typhimurium, GFP reporter (AID 1863)
measurementLabel: IC50

Consider the reported IC50 for these molecules:
{"columns": ["molecule", "measuredResult"],
 "data": [
  ["CN1CCN(C(c2ccc(Br)cc2)c2cc(Cl)c3cccnc3c2O)CC1 (configuration not stated)", "30.4 µM"],
  ["COc1cc(/C=C/[N+](=O)[O-])ccc1O", "82.5 µM"],
  ["Cc1ccccc1Nc1cc(C)c2c(O)cccc2n1", "61.9 µM"],
  ["Cc1cc(C(C)(C)CC(C)(C)C)ccc1OCCOCC[N+](C)(C)Cc1ccccc1", "31.8 µM"],
  ["CCN(CC)c1ccc(/C=N/Nc2nc3ccccc3[nH]2)c(O)c1", "134 µM"],
  ["CC(C)Oc1ccc(Cc2cnc(N)nc2N)cc1", "92 µM"]
]}

Turning to the following molecule.
The reported IC50 of the molecule CCC(C)(C)c1ccc(OCCCC[n+]2ccccc2)c(C(C)(C)CC)c1 was 38.9 µM

* * *

Overview of recorded pIC50 for various molecules
System: S. Typhimurium PhoP-regulated promoter GFP reporter, 4 h
Assay: inhibitors of PhoP regulon expression, primary screen, Salmonella Typhimurium, GFP reporter (AID 1863)
Note on units: pIC50 is unitless, being -log10 of a concentration expressed in mol/L.

{"columns": ["smilesInput", "pIC50"],
 "data": [
  ["Clc1c(OCCCn2ccnc2)ccc2ccccc12", 4.03],
  ["O=C(C[n+]1cc(-c2ccc(Cl)cc2)n2c1CCC2)Nc1nc(-c2ccc(F)cc2)cs1", 4.13],
  ["Nc1nc(F)nc2c1ncn2[C@@H]1O[C@H](CO)[C@@H](O)[C@H]1O", 4.56],
  ["O=C(Nc1ccc(Cl)c(Cl)c1)Nc1ccccc1O", 3.87],
  ["O=C(CSc1ccccn1)N/N=C/c1cc([N+](=O)[O-])ccc1O", 4.24]
]}

Please find the next molecule below.
Record CS(=O)(=O)c1ccc([C@@H](O)[C@@H](CO)NC(=O)C(Cl)Cl)cc1 , field pIC50: 4.15

* * *

The entries below are paired with their reported IC50.
System: S. Typhimurium PhoP-regulated promoter GFP reporter, 4 h
Experiment: inhibitors of PhoP regulon expression, primary screen, Salmonella Typhimurium, GFP reporter (AID 1863)

For orientation, consider the following solved cases.
{"columns": ["molecule", "testedTarget", "IC50"],
 "data": [
  ["CC(C)CCNCC(O)CON=C1c2ccccc2-c2ccccc21 (stereo unspecified)", "S. Typhimurium PhoP-regulated promoter GFP reporter, 4 h", "123 µM"],
  ["Oc1c(CN2CCOCC2)cc(COCc2ccccc2)c2cccnc12", "S. Typhimurium PhoP-regulated promoter GFP reporter, 4 h", "97.8 µM"],
  ["O=C(N/N=C\\C=C\\c1ccc([N+](=O)[O-])o1)c1cccs1", "S. Typhimurium PhoP-regulated promoter GFP reporter, 4 h", "23.5 µM"]
]}

Measured IC50, O=[N+]([O-])c1ccc(O)c2ncccc12 : 3.48 µM

Form: molecule = CCCCN(CCCC)C(=O)c1cn(CC)c2cc(N3CCN(C)CC3)c(F)cc2c1=O ; IC50 = 11.4 µM

Item: COc1c(N2CCN(C(=S)NC3CC4CCC3C4)C(C)C2)c(F)cc2c(=O)c(C(=O)O)cn(C3CC3)c12 (stereo unspecified) | IC50: 22.2 µM

Short answer for Nc1nonc1C(=O)N/N=C/c1cc(Br)ccc1O : IC50 was 17.1 µM

What the record says about CCCCOc1ccc(Br)cc1CSC(=N)N : IC50 is 89.9 µM

Quick note, IC50 for CCCc1cnc(NCCNCC(O)COc2ccc(Cl)c(Cl)c2)nc1 (stereo unspecified) landed at 54.2 µM

GET /value?item= COc1ccc(/C=N/Nc2cc(C)nc3ccccc23)cc1 &field=IC50 returns 38.5 µM

* * *

# maps each entry to its IC50
Tested on: S. Typhimurium PhoP-regulated promoter GFP reporter, 4 h
Assay: inhibitors of PhoP regulon expression, primary screen, Salmonella Typhimurium, GFP reporter (AID 1863)

{"columns": ["compound", "measuredResult"],
 "data": [
  ["COc1ccc(Nc2cc(C)c3c(O)cccc3n2)cc1", "68.6 µM"],
  ["CCCCCOc1ccc(CSC(=N)N)cc1[N+](=O)[O-]", "82.7 µM"],
  ["O=c1[nH]c2ccccc2n2c(=S)[nH]nc12", "39.4 µM"],
  ["Cc1cc(C(=O)N/N=C/c2ccc([N+](=O)[O-])s2)n[nH]1", "42.6 µM"],
  ["O=C(c1cccs1)c1no[n+]([O-])c1C(=O)c1cccs1", "33.7 µM"]
]}

S. Typhimurium PhoP-regulated promoter GFP reporter, 4 h data for CC(C(=O)c1ccc(-c2ccccc2)cc1)[n+]1cccc(NC(=O)c2ccccc2)c1 (configuration not stated) ; its IC50: 78.3 µM

Entry Oc1c(CN2CCc3ccccc3C2)cc(Cl)c2cccnc12 : IC50 on S. Typhimurium PhoP-regulated promoter GFP reporter, 4 h = 22 µM

Tested on S. Typhimurium PhoP-regulated promoter GFP reporter, 4 h, the item COc1c(N2CCN(C(=S)Nc3ccc(F)cc3)C(C)C2)c(F)cc2c(=O)c(C(=O)O)cn(C3CC3)c12 (configuration not stated) showed IC50 equal to 7.48 µM

IC50 on S. Typhimurium PhoP-regulated promoter GFP reporter, 4 h for C/C(=N\Nc1ncnc2sc(C)c(C)c12)c1ccccn1 is 73.9 µM

Simply: Cc1cc(C(=O)N/N=C/c2cc(Br)cc([N+](=O)[O-])c2O)c2ccccc2n1 , S. Typhimurium PhoP-regulated promoter GFP reporter, 4 h, IC50 = 118 µM
